Listing of recorded zone of inhibition at 1000 µg/mL by entry.
- System: Bacillus subtilis
- experiment_notes: Antibacterial activity against Bacillus subtilis ATCC 6633 at 1 mg/ml after 24 hrs by agar-diffusion method
- Format: functional
- particulars: ATCC 6633, 24 h, read-out: IZ
Respond with the bare value in mm.

Observe how each entry below is paired with its result.
Cc1[nH]n(-c2ccccc2)c(=O)c1C(=O)CN1CCCCC1 = 43
Cc1[nH]n(-c2ccccc2)c(=O)c1C1=Nc2ccccc2SC1 = 15
Cc1[nH]n(-c2ccccc2)c(=O)c1C1=Nc2ccccc2NC1 = 19
Cc1[nH]n(-c2ccccc2)c(=O)c1-c1cc2c(=O)oc3ccccc3c2o1 = 33
CC(=O)c1cc(-c2c(C)[nH]n(-c3ccccc3)c2=O)oc1C = 42

Continue with the molecule presented below.
zone of inhibition at 1000 µg/mL in this record for Cc1nn(-c2ccccc2)c2c1/C(=N/c1ccccn1)CO2 : 26
